Biological target: human H4 receptor (Homo sapiens)
Construct: expressed in transfected cells
Test: [3H]Histamine binding on membranes of CHO cells stably expressing human H4 receptor
RECORDED ENDPOINT: Ki or IC50 activity class

> print(dat)
                                   compound                      assay.target          recorded.endpoint    result
1  CN1CCC(OC(c2nc3ccccc3[nH]2)c2cccc3cc[nH]c23)CC1 (centres unmarked)  human H4 receptor (Homo sapiens)  Ki or IC50 activity class  < 0.3 µM

The recorded Ki or IC50 activity class for entry CSc1ccccc1-c1cccc(C(OC2CCN(C)CC2)c2nc3ccccc3[nH]2)c1 (centres unmarked) equals < 0.3 µM

The recorded Ki or IC50 activity class for entry CN1CCC(OC(c2cccc(C#CCCCCNC(=N)NC(=O)OC(C)(C)C)c2)c2nc3ccccc3[nH]2)CC1 (centres unmarked) equals < 0.3 µM

The recorded Ki or IC50 activity class for entry CSc1cccc(C(NC2CCN(C)CC2)c2nc3ccccc3[nH]2)c1 (centres unmarked) equals < 0.03 µM

The recorded Ki or IC50 activity class for entry CN1CCC(OC(c2cccc(OCCCCCN)c2)c2nc3ccccc3[nH]2)CC1 (centres unmarked) equals < 0.03 µM

The recorded Ki or IC50 activity class for entry CN1CCC(OC(c2cccc(OCC3CCCCC3)c2)c2nc3ccccc3s2)CC1 (centres unmarked) equals < 1 µM

The recorded Ki or IC50 activity class for entry CN1CCC(OC(c2cccc(OCc3cccnc3)c2)c2nc3ccccc3s2)CC1 (centres unmarked) equals < 0.3 µM

The recorded Ki or IC50 activity class for entry CN1CCC(OC(c2ccccc2)c2nc3cc(Br)ccc3[nH]2)CC1 (centres unmarked) equals < 0.3 µM

====

Target: human H4 receptor (Homo sapiens, UniProt Q9H3N8)
Construct: expressed in transfected cells
Test: [3H]Histamine binding on membranes of CHO cells stably expressing human H4 receptor
RECORDED ENDPOINT: Ki or IC50 activity class

# example entries with known answers
> print(dat)
                                   compound                              assay.target          recorded.endpoint    result
1  COc1cccc(COc2cccc(C(OC3CCN(C)CC3)c3nc4ccccc4s3)c2)c1 (stereo not shown) [Example 185]  human H4 receptor (Homo sapiens, UniProt Q9H3N8)  Ki or IC50 activity class   < 30 nM
2  CN1CCC(OC(c2cccc(-c3ccc(C(F)(F)F)cc3)c2)c2nc3ccccc3s2)CC1 (stereo not shown) [Example 140]  human H4 receptor (Homo sapiens, UniProt Q9H3N8)  Ki or IC50 activity class  < 300 nM
3  CN1CCC(OC(c2cccc(CCCNC(=N)N)c2)c2nc3ccccc3[nH]2)CC1 (stereo not shown) [Example 320]  human H4 receptor (Homo sapiens, UniProt Q9H3N8)  Ki or IC50 activity class   < 30 nM

The recorded Ki or IC50 activity class for entry CN1CCC(OC(c2cccc(CCc3cn(C)cn3)c2)c2nc3ccccc3s2)CC1 (stereo not shown) [Example 306] equals < 300 nM

====

Where a name gives a salt, the structure may show the parent alone.
RECORDED ENDPOINT: melting point (°C)

> print(dat)
                                   molecule  number
1  CN1CCC(OC(c2cccc(OCC3CCCCC3)c2)c2nc3ccccc3s2)CC1 (stereo not drawn) (as salt: oxalate)     101
2  CN1CCC(OC(c2ccc3ccsc3c2)c2nc3ccccc3[nH]2)CC1 (stereo not drawn) (as salt: oxalate)     160
3  CN1CCC(OC(c2cccc(CCC3CNC3)c2)c2nc3ccccc3[nH]2)CC1 (stereo not drawn)     146
4  CN1CCC(OC(c2nc3ccccc3[nH]2)c2ccc(C(F)(F)F)cc2F)CC1 (stereo not drawn)      91
5  CN1CCC(OC(c2nc3ccccc3[nH]2)c2cc(Cl)cc(F)c2O)CC1 (stereo not drawn)     146
6  CN1CCC(OC(c2cccc(CCCCCNC(=N)N)c2)c2nc3ccccc3s2)CC1 (stereo not drawn) (as salt: hydrochloride)      90

A = CN1CCC(OC(c2cccc(SCCCN)c2)c2nc3ccccc3[nH]2)CC1 (stereo not drawn)
B = CN1CCC(OC(c2nc3ccccc3[nH]2)c2ccccc2Br)CC1 (stereo not drawn)
(Q) Compare reported melting point values for A and B . Which is lower? Field: selected label. Fill in the label of the entry you choose.
(A) A
